These entries and their values trace back to paper PMC5794198.

experimental_details: C2C12 host cell cytotoxicity (cell ratio) in HCS assay
Type: cell-based, Mouse
condition: mouse, cell ratio, 72 h; read-out: C2C12 Cytotoxicity (CC50 ± SD)
experimental_endpoint: log10(CC50 at 72 h) (log10 of the value in µM)
Heads up: the numbers are on a log10 scale; they represent CC50 at 72 h in µM.

State the recorded log10(CC50 at 72 h) for every item in the following list.
1. O=C1c2cccc3cccc(c23)C(=O)N1CCCN1CCC(CCCC2CCN(CCCN3C(=O)c4cccc5cccc(c45)C3=O)CC2)CC1 [Compound 6a]
2. O=C1c2cccc3cccc(c23)C(=O)N1CCCNCCCCNCCCNCCCN1C(=O)c2cccc3cccc(c23)C1=O [Compound 9, BNIP Spermidine]
3. O=C1c2cccc3cccc(c23)C(=O)N1CCCNCCCCCCCCCNCCCN1C(=O)c2cccc3cccc(c23)C1=O [Compound 6]
4. O=C1c2cccc3cccc(c23)C(=O)N1CCCNCCOCCOCCNCCCN1C(=O)c2cccc3cccc(c23)C1=O [Compound 9a]
5. O=C1c2cccc3cccc(c23)C(=O)N1CCCNCCCCNCCCN1C(=O)c2cccc3cccc(c23)C1=O [Compound 1]

Outgoing:
[0.46, 1.39, 0.37, 0.87, 0.46]

State the recorded log10(CC50 at 72 h) for every item in the following list.
1. O=C1c2cccc3cccc(c23)C(=O)N1CCCNCCCN1CCN(CCCNCCCN2C(=O)c3cccc4cccc(c34)C2=O)CC1 [Compound 7a]
2. O=C1c2cccc3cccc(c23)C(=O)N1CCCNCCCCCCCCCCCCNCCCN1C(=O)c2cccc3cccc(c23)C1=O [Compound 8]

Outgoing:
1. 1.29
2. 0.28

###

assay_system: human SIRT1 (Homo sapiens, UniProt Q96EB6)
Sequence (Q96EB6 whole entry): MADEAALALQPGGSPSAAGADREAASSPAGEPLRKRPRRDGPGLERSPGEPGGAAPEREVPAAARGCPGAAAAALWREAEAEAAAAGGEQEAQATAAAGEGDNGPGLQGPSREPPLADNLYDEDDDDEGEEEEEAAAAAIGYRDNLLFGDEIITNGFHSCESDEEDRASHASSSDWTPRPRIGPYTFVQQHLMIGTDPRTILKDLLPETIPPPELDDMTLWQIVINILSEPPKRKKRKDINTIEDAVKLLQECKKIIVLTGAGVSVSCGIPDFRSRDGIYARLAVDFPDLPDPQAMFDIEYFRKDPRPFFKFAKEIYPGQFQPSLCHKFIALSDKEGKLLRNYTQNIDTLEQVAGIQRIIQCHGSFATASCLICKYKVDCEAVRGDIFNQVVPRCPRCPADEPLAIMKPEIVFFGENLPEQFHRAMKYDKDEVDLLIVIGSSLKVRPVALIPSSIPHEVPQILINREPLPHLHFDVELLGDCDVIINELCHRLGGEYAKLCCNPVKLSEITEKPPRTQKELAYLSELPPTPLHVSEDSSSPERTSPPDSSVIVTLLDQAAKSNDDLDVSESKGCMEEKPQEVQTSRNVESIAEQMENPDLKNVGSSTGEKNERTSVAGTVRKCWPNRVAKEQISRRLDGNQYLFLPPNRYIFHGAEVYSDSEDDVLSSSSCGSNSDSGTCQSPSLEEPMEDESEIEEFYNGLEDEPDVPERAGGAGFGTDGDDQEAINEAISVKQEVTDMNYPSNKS
experimental_details: hSIRT1 deacetylase inhibition (CycLex kit)
Type: biochemical
condition: 10 µM; n=2; N.I. = no inhibition
Could you please report measured hSIRT1 Inhibition at 10 µM (% ± SD) for the items listed next?
One number for each entry, in %.

compound: O=C1c2cccc3cccc(c23)C(=O)N1CCCNC1CCC(NCCCN2C(=O)c3cccc4cccc(c34)C2=O)CC1 (centres unmarked) [Compound 1a]
recorded_number: 1

hSIRT1 Inhibition at 10 µM (% ± SD) reported for this compound O=C1c2cccc3cccc(c23)C(=O)N1CCCNC1CCC(NCCCN2C(=O)c3cccc4cccc(c34)C2=O)CC1 (centres unmarked) [Compound 1b] : 3

###

experimental_details: MTT cytotoxicity on hepatocytes
Format: cell-based
condition: hepatocytes, CC50 cell line / EC50 T. cruzi; read-out: Selectivity Index, hepatocytes
experimental_endpoint: selectivity ratio

selectivity ratio reported for this compound O=C1c2cccc3cccc(c23)C(=O)N1CCCNCCCCNCCCNCCCN1C(=O)c2cccc3cccc(c23)C1=O : ~1

###

Test system: C2C12 cells
experimental_details: C2C12 host cell cytotoxicity (cell ratio) in HCS assay
Assay type: cell-based, Mouse
condition: cell ratio, 72 h; read-out: C2C12 Cytotoxicity (CC50 ± SD)
experimental_endpoint: CC50 (µM)
Numbers only, in µM.

CC50 reported for this compound O=C1c2cccc3cccc(c23)C(=O)N1CCCNC1CCC(NCCCN2C(=O)c3cccc4cccc(c34)C2=O)CC1 (centres unmarked) [Compound 1a] : 8.74

###

Could you please report measured log10(EC50) for the items listed next?
Test system: T. cruzi epimastigotes overexpressing TcSir2rp1 (OE) with the pTcINDEX
experimental_details: microbe, parasite or virus in culture
Type: cell-based
condition: Trypanosoma cruzi, read-out: EC50 against T. cruzi epimastigotes OE
Heads up: the numbers are on a log10 scale; they represent EC50 in µM.

molecule: CC1CS(=O)(=O)CCN1/N=C/c1ccc([N+](=O)[O-])o1 (centres unmarked) [Nifurtimox, nifurtimox, reference compound]
experimental_endpoint: log10(EC50)
recorded_number: 0.35

molecule: O=C1c2cccc3cccc(c23)C(=O)N1CCCNCCCCCCCCCCNCCCN1C(=O)c2cccc3cccc(c23)C1=O
experimental_endpoint: log10(EC50)
recorded_number: 0.47

molecule: O=C1c2cccc3cccc(c23)C(=O)N1CCCNCCCCCNCCCN1C(=O)c2cccc3cccc(c23)C1=O
experimental_endpoint: log10(EC50)
recorded_number: 0.90

molecule: O=C1c2cccc3cccc(c23)C(=O)N1CCCNCCCCCCNCCCN1C(=O)c2cccc3cccc(c23)C1=O
experimental_endpoint: log10(EC50)
recorded_number: 2.01

log10(EC50) reported for this molecule O=C1c2cccc3cccc(c23)C(=O)N1CCCNCCCCCCCCCNCCCN1C(=O)c2cccc3cccc(c23)C1=O : 2.05
